Test system: K4 kissing-loop RNA reporter;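 further: bound reporter read as fluorescence of individual clusters on recovered sequencing chips by microscopy, with normalized cluster intensities fitted with a binding model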
assay-method-text: apparent KD of K4 kissing-loop reporter; higher = weaker reporter binding
measurement-setup: Eterna round: R107; input ligand: none
measured-quantity: apparent KD of K4 kissing-loop reporter (nM)

> print(dat)
                                        seq                        measured.quantity  meas.value
1  GAUUGUGAUGGAAACAUCGCAAUCUCUGAAGGAGCGCGUGAAAACGCAGGUAGGUCGCAGAACGACAAAGACAGUGAUGUUGUCA [Ex Arginine A K4 5]  apparent KD of K4 kissing-loop reporter         289
2  UGACAUUGCUCAGAUACCAGACAUGAGCAUCAGCCAUGUGCCAACGUACAAAUAAUAAAUGUCCCUUGGCAGCUGAGCAAUGUCU [TheoBX 15]  apparent KD of K4 kissing-loop reporter        48.2
3  AAGCAGUCACUCGAAACCAUCGAAGAUGGGCGAGGACCGGUACGGCCGCCACUCGGAGUGAUGUUCCGAAGACUGCAAAAUAAAA  apparent KD of K4 kissing-loop reporter         592
